# PROCEDURE TEXT: Cytotoxicity assay on MRC-5 fibroblasts
# Type: cell-based
# TEST CONTEXT: human, MRC-5SV2 embryonic lung fibroblasts; Table 1; mean and SEM of two independent experiments; highest concentration 64 μM; read-out: MRC-5 off-target cytotoxicity (CC50)
Some compounds, each annotated with its measured CC50 at 3 day.

Solved entries:
1) CCCCSc1ncnc2c1ccn2[C@@H]1O[C@H](CO)[C@@H](O)[C@H]1O	> 64 µM
2) OC[C@H]1O[C@@H](n2ccc3c(SC4CCCCC4)ncnc32)[C@H](O)[C@@H]1O	58.8 µM
3) CC(C)Sc1ncnc2c1ccn2[C@@H]1O[C@H](CO)[C@@H](O)[C@H]1O	> 64 µM
4) OC[C@H]1O[C@@H](n2ccc3c(SC4CCCC4)ncnc32)[C@H](O)[C@@H]1O	45.5 µM
5) OC[C@H]1O[C@@H](n2ccc3c(Sc4ccccc4)ncnc32)[C@H](O)[C@@H]1O	> 64 µM
6) CCSc1ncnc2c1cnn2[C@@H]1O[C@H](CO)[C@@H](O)[C@H]1O	> 64 µM

What the record says about CC(C)c1ccc(CSc2ncnc3c2ccn3[C@@H]2O[C@H](CO)[C@@H](O)[C@H]2O)cc1 : CC50 at 3 day is 26.9 µM

// CC50 at 3 day value for C=CCSc1ncnc2c1ccn2[C@@H]1O[C@H](CO)[C@@H](O)[C@H]1O : > 64 µM

All values here come from patent US20250320245A1.
